# key: entry, value: Relative fold loss of activity, FDC-P1 lactogenic assay
tested.system: T1, human prolactin receptor on transfected FDC-P1 cells (human, UniProt P16471 25-622)
T1 sequence (looked up): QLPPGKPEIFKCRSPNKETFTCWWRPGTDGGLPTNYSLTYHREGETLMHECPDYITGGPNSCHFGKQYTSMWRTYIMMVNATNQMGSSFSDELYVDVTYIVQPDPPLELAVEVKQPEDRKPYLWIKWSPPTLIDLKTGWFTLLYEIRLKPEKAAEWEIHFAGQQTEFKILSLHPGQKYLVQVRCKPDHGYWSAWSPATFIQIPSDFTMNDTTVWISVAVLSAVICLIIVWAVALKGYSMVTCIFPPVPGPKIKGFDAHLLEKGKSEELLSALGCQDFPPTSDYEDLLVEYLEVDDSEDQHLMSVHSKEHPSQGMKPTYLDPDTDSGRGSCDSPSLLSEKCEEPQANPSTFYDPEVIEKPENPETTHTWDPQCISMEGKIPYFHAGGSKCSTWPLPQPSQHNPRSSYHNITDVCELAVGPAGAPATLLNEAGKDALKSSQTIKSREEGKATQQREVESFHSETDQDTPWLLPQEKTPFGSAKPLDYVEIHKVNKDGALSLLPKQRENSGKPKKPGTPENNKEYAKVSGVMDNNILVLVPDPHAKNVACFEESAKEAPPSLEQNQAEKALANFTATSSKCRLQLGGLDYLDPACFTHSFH
test.details: cell-based or functional assay
Give the value in fold but do not write fold after it.

binder	value
Y169E human prolactin (ligand) MLPICPGGAARCQVTLRDLFDRAVVLSHYIHNLSSEMFSEFDKRYTHGRGFITKAINSCHTSSLATPEDKEQAQQMNQKDFLSLIVSILRSWNEPLYHLVTEVRGMQEAPEAILSKAVEIEEQTKRLLEGMELIVSQVHPETKENEIYPVWSGLPSLQMADEESRLSAYENLLHCLRRDSHKIDNYLKLLKCRIIHNNNC	90

# input for lookup
Problem: Recorded Relative fold loss of activity, FDC-P1 lactogenic assay for ΔF50 human prolactin (ligand) MLPICPGGAARCQVTLRDLFDRAVVLSHYIHNLSSEMFSEFDKRYTHGRGITKAINSCHTSSLATPEDKEQAQQMNQKDFLSLIVSILRSWNEPLYHLVTEVRGMQEAPEAILSKAVEIEEQTKRLLEGMELIVSQVHPETKENEIYPVWSGLPSLQMADEESRLSAYYNLLHCLRRDSHKIDNYLKLLKCRIIHNNNC , please?
Solution: 2.7
